- Target desc: NS5B from the BK strain (genotype 1b) (Hepatitis C virus genotype 1b, UniProt P26663)
- Construct: NS5B from the BK strain (genotype 1b) is expressed in E. coli as a protein in which the 21 C-terminal amino acids are replaced; made in house; host or cells: E. coli
- Sequence (P26663 2420-2989): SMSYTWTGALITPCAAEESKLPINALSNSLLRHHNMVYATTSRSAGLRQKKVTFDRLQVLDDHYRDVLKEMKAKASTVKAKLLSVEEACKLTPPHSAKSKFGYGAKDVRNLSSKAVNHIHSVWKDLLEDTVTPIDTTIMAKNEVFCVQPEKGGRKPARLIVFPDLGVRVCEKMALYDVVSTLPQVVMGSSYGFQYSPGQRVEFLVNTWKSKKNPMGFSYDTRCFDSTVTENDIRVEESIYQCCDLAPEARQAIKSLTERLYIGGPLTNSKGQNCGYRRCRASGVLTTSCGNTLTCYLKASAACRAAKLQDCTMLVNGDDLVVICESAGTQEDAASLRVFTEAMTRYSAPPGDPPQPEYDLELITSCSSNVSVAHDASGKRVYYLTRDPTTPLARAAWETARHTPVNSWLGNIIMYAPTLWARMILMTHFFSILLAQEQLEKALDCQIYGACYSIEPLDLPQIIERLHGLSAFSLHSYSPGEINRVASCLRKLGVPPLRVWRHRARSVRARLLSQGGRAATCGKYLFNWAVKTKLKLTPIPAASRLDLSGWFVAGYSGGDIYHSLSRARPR
- Method description: Hepatitis C polymerase inhibition, NS5B BK strain, 33P-GTP filter assay
- Assay type: biochemical
- Condition details: Table 1A; NS5B BK strain; read-out: HCV pol BK IC50
pIC50: −log10 of the molar value.

| Compound | pIC50 |
| --- | --- |
| CCCC1(CC(=O)O)OCCc2c1[nH]c1c(Cl)cc(C)c(I)c21 (stereo not shown) | 6.20 |
| CC(C)C1(CC(=O)O)OCCc2c1[nH]c1cccc(Cl)c21 (stereo not shown) | < 4.70 |
| COC(=O)CC1(CC(=O)O)OCCc2c1[nH]c1cccc(Cl)c21 (stereo not shown) | < 5.30 |
| O=C(O)CC1(c2ccccc2)OCCc2c1[nH]c1c(Cl)ccc(C(F)(F)F)c21 (stereo not shown) | < 4.70 |

* * *

- Target desc: NS5B from the BK strain (genotype 1b) (Hepatitis C virus genotype 1b)
- Construct: NS5B from the BK strain (genotype 1b) is expressed in E. coli as a protein in which the 21 C-terminal amino acids are replaced; made in house; host or cells: E. coli
- Method description: Hepatitis C polymerase inhibition, NS5B BK strain, 33P-GTP filter assay
- Type: biochemical
- Condition details: Table 1A; NS5B BK strain; read-out: HCV pol BK IC50
pIC50: −log10 of the molar value.
Below: a set of entries, each annotated with reported pIC50.
Metric: pIC50

| Compound | Metric | Qualifier symbol | Assay value |
| --- | --- | --- | --- |
| CCCC1(CC(=O)O)OCCc2c1[nH]c1c(Cl)cc(C)c(C#N)c21 (centres unmarked) | pIC50 | = | 6.23 |
| CCC1(CC(=O)O)OCCc2c1[nH]c1c(C(F)(F)F)cccc21 (centres unmarked) | pIC50 | < | 4.70 |
| CCCC1(CC(=O)O)OCCc2c1[nH]c1c(Cl)cc(Cl)c(Cl)c21 (centres unmarked) | pIC50 | = | 7.10 |
| N#Cc1cccc2[nH]c3c(c12)CCOC3(CC(=O)O)c1cccc([N+](=O)[O-])c1 (centres unmarked) | pIC50 | < | 4.70 |
| CCCCC1(CC(=O)O)OCCc2c1[nH]c1c(Br)cccc21 (centres unmarked) | pIC50 | = | 4.71 |

* * *

- Target desc: NS5B from the BK strain (genotype 1b) (Hepatitis C virus genotype 1b)
- Construct: NS5B from the BK strain (genotype 1b) is expressed in E. coli as a protein in which the 21 C-terminal amino acids are replaced; made in house; host or cells: E. coli
- Method description: Hepatitis C polymerase inhibition, NS5B BK strain, 33P-GTP filter assay
- Assay type: biochemical
- Condition details: Table 1A; NS5B BK strain; read-out: HCV pol BK IC50

| Compound | IC50 |
| --- | --- |
| CCCC1(CC(=O)O)OCCc2c1[nH]c1c(C)ccc(C(=O)NC)c21 (centres unmarked) | > 20 µM |
| CCC1(CC(=O)O)OCCc2c1[nH]c1c(F)cc(C)c(C#N)c21 (centres unmarked) | > 5 µM |
| O=C(O)CC1(c2ccoc2)OCCc2c1[nH]c1c(Br)cccc21 (centres unmarked) | > 20 µM |
| CCC[C@@]1(CC(=O)O)OCCc2c1[nH]c1c(F)ccc(C#N)c21 | 5.7 µM |
| CCCC1(CC(=O)O)OCCc2c1[nH]c1cccc(-c3cccc(Cl)c3)c21 (centres unmarked) | > 20 µM |
| CC(C)C1(CC(=O)O)OCCc2c1[nH]c1c(Cl)cc(Cl)cc21 (centres unmarked) | 21.7 µM |
| CC1(CC(=O)O)OCCc2c1[nH]c1c(Cl)ccc(C(F)(F)F)c21 (centres unmarked) | > 20 µM |
| CC(C)C1(CC(=O)O)OCCc2c1[nH]c1c(F)ccc(F)c21 (centres unmarked) | > 20 µM |
| C/C=C/CCC1(CC(=O)O)OCCc2c1[nH]c1c(Cl)ccc(C(F)(F)F)c21 (centres unmarked) | > 20 µM |
| CCCC1(CC(=O)O)OCCc2c1[nH]c1cccc(-c3cccs3)c21 (centres unmarked) | > 20 µM |
| CC(C)CCCC1(CC(=O)O)OCCc2c1[nH]c1c(Cl)ccc(Cl)c21 (centres unmarked) | > 20 µM |
| CCCCC1(CC(=O)O)OCCc2c1[nH]c1c(Cl)cc(Cl)c(Cl)c21 (centres unmarked) | 0.28 µM |
| CCCC1(CC(=O)O)OCCc2c1[nH]c1c(F)ccc(F)c21 (centres unmarked) | 6.7 µM |
| CCC1(CC(=O)O)OCCc2c1[nH]c1c(Br)cccc21 (centres unmarked) | > 20 µM |

* * *

- Target desc: UniProt Q9WMX2
- Method description: Hepatitis C polymerase inhibition, BB7 sequence
- Assay type: biochemical
- Condition details: Table 1B
Metric: log10 of IC50 (log10 of the value in µM)

| Compound | Metric | Assay value |
| --- | --- | --- |
| O=C(O)CC1(C2CCCC2)OCCc2c1[nH]c1c(F)ccc(C(F)(F)F)c21 (centres unmarked) | log10 of IC50 | 1.23 |
| O=C(O)CC1(CC2CCCC2)OCCc2c1[nH]c1c(Cl)ccc(Cl)c21 (centres unmarked) | log10 of IC50 | 1.15 |
| CCCOc1cc(C#N)c2c3c([nH]c2c1C)[C@](CCC)(CC(=O)O)OCC3 | log10 of IC50 | -0.11 |
| CC[C@H](C)C1(CC(=O)O)OCCc2c1[nH]c1c(C)ccc(Cl)c21 (mixture of isomers) | log10 of IC50 | -0.05 |
| COCCC1(CC(=O)O)OCCc2c1[nH]c1c(Cl)ccc(C(F)(F)F)c21 (centres unmarked) | log10 of IC50 | 1.34 |

* * *

- Target desc: NS5B from the BK strain (genotype 1b) (Hepatitis C virus genotype 1b, UniProt P26663)
- Construct: NS5B from the BK strain (genotype 1b) is expressed in E. coli as a protein in which the 21 C-terminal amino acids are replaced; made in house; host or cells: E. coli
- Method description: Hepatitis C polymerase inhibition, NS5B BK strain, 33P-GTP filter assay
- Format: biochemical
- Condition details: Table 1A; NS5B BK strain; read-out: HCV pol BK IC50
Measured IC50 accompanies every entry in the list below.

| Molecule | Target desc | IC50 |
| --- | --- | --- |
| O=C(O)CC1(c2ccc(C(=O)O)cc2)OCCc2c1[nH]c1c(F)ccc(F)c21 (stereo not shown) | NS5B from the BK strain (genotype 1b) (Hepatitis C virus genotype 1b, UniProt P26663) | > 20 µM |
| CC(C)C1(CC(=O)O)OCCc2c1[nH]c1c(Cl)cccc21 (stereo not shown) | NS5B from the BK strain (genotype 1b) (Hepatitis C virus genotype 1b, UniProt P26663) | > 20 µM |
| Cc1cc(F)c2[nH]c3c(c2c1Br)CCOC3(CC(=O)O)c1ccccc1 (stereo not shown) | NS5B from the BK strain (genotype 1b) (Hepatitis C virus genotype 1b, UniProt P26663) | > 10 µM |
| O=C(O)CC1(c2ccc(C(=O)O)cc2)OCCc2c1[nH]c1c(Br)cccc21 (stereo not shown) | NS5B from the BK strain (genotype 1b) (Hepatitis C virus genotype 1b, UniProt P26663) | > 20 µM |

* * *

Recorded measurements of pIC50, one per entry
- Target desc: BB7 (RNA-dependent RNA polymerase hepatitis C virus protein sequence derived from HCV replicon) (Hepatitis C virus genotype 1b)
- Sequence (Q9WMX2 2420-3010): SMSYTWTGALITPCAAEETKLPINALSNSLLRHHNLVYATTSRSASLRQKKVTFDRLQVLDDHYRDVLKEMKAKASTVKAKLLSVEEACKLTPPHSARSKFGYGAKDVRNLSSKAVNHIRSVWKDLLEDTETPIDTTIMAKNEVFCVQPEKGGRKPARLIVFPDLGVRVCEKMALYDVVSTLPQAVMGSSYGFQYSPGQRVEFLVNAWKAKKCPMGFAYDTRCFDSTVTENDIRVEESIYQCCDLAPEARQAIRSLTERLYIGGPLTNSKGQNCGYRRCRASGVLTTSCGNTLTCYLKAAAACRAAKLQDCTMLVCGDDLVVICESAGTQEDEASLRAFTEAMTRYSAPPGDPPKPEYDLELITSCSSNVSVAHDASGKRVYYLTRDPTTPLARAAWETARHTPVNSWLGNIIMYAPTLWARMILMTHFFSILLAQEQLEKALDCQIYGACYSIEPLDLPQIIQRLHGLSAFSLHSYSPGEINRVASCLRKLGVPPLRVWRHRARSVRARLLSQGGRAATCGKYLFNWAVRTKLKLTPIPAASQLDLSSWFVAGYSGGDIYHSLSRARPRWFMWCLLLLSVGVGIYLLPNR
pIC50: −log10 of the molar value.
Metric: pIC50

| Compound | Assay value |
| --- | --- |
| CC[C@H](C)[C@@]1(C(=O)O)OCCc2c1[nH]c1c(C)ccc(C#N)c21 (relative stereo) [Example 335] | < 4.52 |
| CC[C@H](C)[C@]1(CC(=O)O)OCCc2c1[nH]c1c(C)ccc(C#N)c21 [Example 293] | < 4.52 |
| N#Cc1ccc(F)c2[nH]c3c(c12)CCOC3(CC(=O)O)CC1CCCC1 (centres unmarked) [Example 310] | < 4.60 |
| COCCC1(CC(=O)O)OCCc2c1[nH]c1c(F)ccc(C#N)c21 (centres unmarked) [Example 304] | < 4.52 |
| CC[C@H](C)[C@@]1(C(=O)O)OCCc2c1[nH]c1c(F)ccc(C#N)c21 (racemic) [Example 348] | < 4.52 |

* * *

- Target desc: NS5B from the BK strain (genotype 1b) (Hepatitis C virus genotype 1b, UniProt P26663)
- Construct: NS5B from the BK strain (genotype 1b) is expressed in E. coli as a protein in which the 21 C-terminal amino acids are replaced; made in house; host or cells: E. coli
- Method description: Hepatitis C polymerase inhibition, NS5B BK strain, 33P-GTP filter assay
- Assay type: biochemical
- Condition details: Table 1A; NS5B BK strain; read-out: HCV pol BK IC50
- Source text: The ability of the compounds of the present invention to inhibit Hepatitis C Polymerase was established by the following experimental procedure: • NS5B from the BK strain (genotype 1b) is expressed in E. coli as a protein in which the 21 C-terminal amino acids are replaced with a short linker and a hexahistidine tag ([…]). […] The radioactive product is captured on a filter and quantitated after removal of the unincorporated nucleotides. […]
pIC50: −log10 of the molar value.
pIC50 values by entry

| Compound | Target desc | pIC50 |
| --- | --- | --- |
| CCCC1(CC(=O)O)OCCc2c1[nH]c1cccc(-c3ccc(Br)cc3)c21 (centres unmarked) [Example 41] | NS5B from the BK strain (genotype 1b) (Hepatitis C virus genotype 1b, UniProt P26663) | < 4.70 |
| CCCC1(CC(=O)O)OCCc2c1[nH]c1cccc(-c3ccc(F)cc3)c21 (centres unmarked) [Example 48] | NS5B from the BK strain (genotype 1b) (Hepatitis C virus genotype 1b, UniProt P26663) | < 4.70 |
| C/C=C/CCC1(CC(=O)O)OCCc2c1[nH]c1c(Cl)cc(C)c(Br)c21 (centres unmarked) [Example 178] | NS5B from the BK strain (genotype 1b) (Hepatitis C virus genotype 1b, UniProt P26663) | < 5.30 |
| O=C(O)CC1(c2ccc([N+](=O)[O-])cc2)OCCc2c1[nH]c1cccc(Cl)c21 (centres unmarked) [Example 18] | NS5B from the BK strain (genotype 1b) (Hepatitis C virus genotype 1b, UniProt P26663) | < 4.70 |
| Cc1cc(F)c(C#N)c2c3c([nH]c12)C(C)(CC(=O)O)OCC3 (centres unmarked) [Example 205] | NS5B from the BK strain (genotype 1b) (Hepatitis C virus genotype 1b, UniProt P26663) | < 4.70 |
| CC1(CC(=O)O)OCCc2c1[nH]c1c(Br)cccc21 (centres unmarked) [Example 80] | NS5B from the BK strain (genotype 1b) (Hepatitis C virus genotype 1b, UniProt P26663) | < 4.70 |
| C/C=C/CCC1(CC(=O)O)OCCc2c1[nH]c1c(F)cc(C)c(C#N)c21 (centres unmarked) [Example 223] | NS5B from the BK strain (genotype 1b) (Hepatitis C virus genotype 1b, UniProt P26663) | < 5.30 |
| Cc1cc(Cl)c2[nH]c3c(c2c1Br)CCOC3(CC(=O)O)c1ccccc1 (centres unmarked) [Example 179] | NS5B from the BK strain (genotype 1b) (Hepatitis C virus genotype 1b, UniProt P26663) | < 5.30 |
